Assayed Target: G2019S human LRRK2, catalytic site (Homo sapiens, UniProt Q5S007, G2019S)
Construct: G2019S human LRRK2, catalytic site
Sequence (Q5S007 970-2527 G2019S limits assumed): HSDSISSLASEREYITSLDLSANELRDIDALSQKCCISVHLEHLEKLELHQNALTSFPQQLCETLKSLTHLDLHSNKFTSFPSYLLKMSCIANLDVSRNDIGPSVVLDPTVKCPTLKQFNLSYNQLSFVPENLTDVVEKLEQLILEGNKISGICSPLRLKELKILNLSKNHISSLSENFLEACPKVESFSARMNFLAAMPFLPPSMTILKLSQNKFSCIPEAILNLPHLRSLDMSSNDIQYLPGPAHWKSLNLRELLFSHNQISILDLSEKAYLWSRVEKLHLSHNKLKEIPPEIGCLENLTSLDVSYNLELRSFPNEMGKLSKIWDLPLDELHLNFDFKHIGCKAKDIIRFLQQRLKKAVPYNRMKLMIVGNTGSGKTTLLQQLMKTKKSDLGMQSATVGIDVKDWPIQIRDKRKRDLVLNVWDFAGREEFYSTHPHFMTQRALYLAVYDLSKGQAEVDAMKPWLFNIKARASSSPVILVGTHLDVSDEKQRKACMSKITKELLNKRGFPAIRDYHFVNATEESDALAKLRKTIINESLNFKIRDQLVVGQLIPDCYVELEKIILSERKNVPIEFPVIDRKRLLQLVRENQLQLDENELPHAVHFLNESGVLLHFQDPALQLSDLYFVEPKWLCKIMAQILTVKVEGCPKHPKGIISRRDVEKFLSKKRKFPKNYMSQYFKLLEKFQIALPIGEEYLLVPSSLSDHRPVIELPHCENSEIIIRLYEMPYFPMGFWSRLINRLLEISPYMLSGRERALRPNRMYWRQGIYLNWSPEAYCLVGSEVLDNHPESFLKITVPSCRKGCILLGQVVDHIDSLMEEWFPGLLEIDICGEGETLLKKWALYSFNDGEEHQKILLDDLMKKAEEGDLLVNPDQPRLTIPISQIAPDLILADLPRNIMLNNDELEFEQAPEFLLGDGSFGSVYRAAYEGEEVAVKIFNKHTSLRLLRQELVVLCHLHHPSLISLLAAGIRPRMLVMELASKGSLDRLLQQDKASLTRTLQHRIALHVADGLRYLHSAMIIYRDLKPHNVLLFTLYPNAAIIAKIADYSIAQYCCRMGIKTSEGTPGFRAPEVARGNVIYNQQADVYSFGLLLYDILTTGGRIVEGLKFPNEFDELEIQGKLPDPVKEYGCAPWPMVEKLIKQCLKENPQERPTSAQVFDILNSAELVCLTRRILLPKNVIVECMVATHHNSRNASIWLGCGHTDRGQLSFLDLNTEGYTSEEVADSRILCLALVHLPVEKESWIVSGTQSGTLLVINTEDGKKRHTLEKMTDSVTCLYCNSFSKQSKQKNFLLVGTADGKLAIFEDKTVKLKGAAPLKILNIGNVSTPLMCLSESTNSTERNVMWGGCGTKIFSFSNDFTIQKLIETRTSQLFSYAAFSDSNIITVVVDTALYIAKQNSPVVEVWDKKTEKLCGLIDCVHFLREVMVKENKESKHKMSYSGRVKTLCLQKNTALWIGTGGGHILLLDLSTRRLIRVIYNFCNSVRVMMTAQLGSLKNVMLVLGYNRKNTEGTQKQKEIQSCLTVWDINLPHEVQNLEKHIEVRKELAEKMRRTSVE
Protocol Notes: TR-FRET LanthaScreen Eu Kinase Binding Assay, LRRK2 G2019S
Condition Context: LRRK2(G2019); one range stated for wt and G2019; read-out: IC50, Activity Toward LRRK2(G2019)
The reader will find reported IC50 values listed item by item below.

Recorded results for 2 compounds are shown here.
1) N#Cc1cn(CCO)c(-c2ccc(Nc3cn(-c4c(Cl)cccc4Cl)nc3C(N)=O)cn2)n1 : 100 to 1000 nM
2) NC(=O)c1nn(-c2c(F)cccc2F)cc1Nc1ccccn1 : 100 to 1000 nM

Record summary for CN1CCC(NC(=O)c2ccc(Nc3cn(-c4c(F)cccc4Cl)nc3C(N)=O)cc2)CC1 : reported IC50 = 10 to 100 nM

The compound listed as N#Cc1cccc(F)c1-n1cc(Nc2ccc(C(=O)N3CCS(=O)(=O)CC3)cc2)c(C(N)=O)n1 has a reported IC50 of 100 to 1000 nM

The origin of these recorded values is patent US20230373985A1.
